# Measurement protocol: recombinant barcode read abundance after kanamycin selection (control-corrected) (log10(CPM+1)); higher = more efficient recombination; sequences stand for … in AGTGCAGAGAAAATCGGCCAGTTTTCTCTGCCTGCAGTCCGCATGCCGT…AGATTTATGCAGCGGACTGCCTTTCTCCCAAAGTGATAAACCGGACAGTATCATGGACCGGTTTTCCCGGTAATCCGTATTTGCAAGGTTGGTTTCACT; site = the 11-nt target
Measurement name: recombinant barcode read abundance (log10)

Chain | Reading
ACAGTAGCTTGGGTTCTAACCTGTTGCGG (site ACAGTAGCTCC) | 1.81
AATGCTCCTTGGGTTCTAACCTGTTGCAT (site AATGCTCCTAG) | 0.248
GAGGTATCTTGGGTTCTAACCTGTTGCTA (site GAGGTATCTTA) | 0.345
ATAAATCCTTGGGTTCTAACCTGTTGCCT (site ATAAATCCTAG) | 0.632
GGTAGATCTTGGGTTCTAACCTGTTGCTT (site GGTAGGCCTAA) | 0.0553
TAGCTGACTTGGGTTCTAACCTGTTGCCC (site GTTTGACCTCC) | 0.136
GACTTGCCTTGGGTTCTAACCTGTTGCCT (site GACTTGGCTAG) | 0.394
TGTTAGCCTTGGGTTCTAACCTGTTGCCT (site TGTTAGCCTAG) | 0.0878
TCGAATTCTTGGGTTCTAACCTGTTGCCT (site TCGATGTCTAG) | 0.0943
ATGTTAGCTTGGGTTCTAACCTGTTGCCT (site ATGTAGGCTAG) | 0.208

* * *

# Measurement protocol: recombinant UMI read abundance after kanamycin selection (control-corrected) (log10(CPM+1)); higher = more efficient recombination; extreme values may be limits of the assay; sequences stand for … in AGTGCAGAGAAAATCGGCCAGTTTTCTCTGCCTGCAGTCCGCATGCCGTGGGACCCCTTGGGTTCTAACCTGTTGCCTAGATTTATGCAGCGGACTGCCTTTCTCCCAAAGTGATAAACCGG…AGGTTGGTTTCACT; site = the 11-nt donor
Measurement name: recombinant UMI read abundance (log10)

Chain | Reading
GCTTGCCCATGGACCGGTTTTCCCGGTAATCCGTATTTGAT (site GCTTTCCCTAT) | 0
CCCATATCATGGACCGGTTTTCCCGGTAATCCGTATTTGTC (site CCCATGTCTGA) | 0
TAGAATACATGGACCGGTTTTCCCGGTAATCCGTATTTGGA (site TAGAATACTTA) | 0.00272
CTAAGGCCATGGACCGGTTTTCCCGGTAATCCGTATTTGAC (site CTAAGGCCTGT) | 0.577
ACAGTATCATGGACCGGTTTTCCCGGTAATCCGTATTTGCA (site AAAGTAACTTG) | 0.587
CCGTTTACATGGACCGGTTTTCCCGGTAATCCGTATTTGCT (site CCGTTTACTAC) | 0
CTGGGCCCATGGACCGGTTTTCCCGGTAATCCGTATTTGCC (site CTGGGCCCTGG) | 0
TTTAGAACATGGACCGGTTTTCCCGGTAATCCGTATTTGGC (site TTTAGAACTGC) | 0
CTACTCACATGGACCGGTTTTCCCGGTAATCCGTATTTGGA (site CTACTGACTTC) | 0.0219
CGATCGACATGGACCGGTTTTCCCGGTAATCCGTATTTGGT (site CGATCGACTAT) | 1.46
TAAAGGGCATGGACCGGTTTTCCCGGTAATCCGTATTTGTG (site TAAAGGGCTCA) | 1.23
CCTGAAGCATGGACCGGTTTTCCCGGTAATCCGTATTTGAT (site CCTCAAGCTAT) | 0
TGGCCGTCATGGACCGGTTTTCCCGGTAATCCGTATTTGGC (site TGGCCGCCTGC) | 0
AATCTGTCATGGACCGGTTTTCCCGGTAATCCGTATTTGAC (site AATATGTCTGT) | 0
CCTAAAGCATGGACCGGTTTTCCCGGTAATCCGTATTTGGT (site CCTAAAGCTAG) | 0
CTTCCGCCATGGACCGGTTTTCCCGGTAATCCGTATTTGAG (site CTTCCGCCTCT) | 0.0295
CGCCGTACATGGACCGGTTTTCCCGGTAATCCGTATTTGGT (site CGCCGTACTAT) | 0.321
CGATGCTCATGGACCGGTTTTCCCGGTAATCCGTATTTGAA (site CAATGCTCTTT) | 0.249

* * *

# Measurement protocol: recombinant UMI read abundance after kanamycin selection (control-corrected) (log10(CPM+1)); higher = more efficient recombination; extreme values may be limits of the assay; sequences stand for … in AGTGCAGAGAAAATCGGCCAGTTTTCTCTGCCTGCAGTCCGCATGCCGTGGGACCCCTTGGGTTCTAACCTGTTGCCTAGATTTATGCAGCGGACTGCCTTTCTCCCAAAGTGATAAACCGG…AGGTTGGTTTCACT; site = the 11-nt donor

Chain | recombinant UMI read abundance (log10)
AATGTGTCATGGACCGGTTTTCCCGGTAATCCGTATTTGTC (site AATGTGTCTGA) | 2.97
GACCGTCCATGGACCGGTTTTCCCGGTAATCCGTATTTGAT (site AACCGTCCTAT) | 0
AATTGTGCATGGACCGGTTTTCCCGGTAATCCGTATTTGAC (site AATTGTGCTGT) | 2.25
CTAGAATCATGGACCGGTTTTCCCGGTAATCCGTATTTGAG (site CTAGTATCTGT) | 0
AGAAAGACATGGACCGGTTTTCCCGGTAATCCGTATTTGCA (site AGAAAGACTTG) | 2.6

* * *

# Measurement protocol: recombinant UMI read abundance after kanamycin selection (control-corrected) (log10(CPM+1)); higher = more efficient recombination; extreme values may be limits of the assay; sequences stand for … in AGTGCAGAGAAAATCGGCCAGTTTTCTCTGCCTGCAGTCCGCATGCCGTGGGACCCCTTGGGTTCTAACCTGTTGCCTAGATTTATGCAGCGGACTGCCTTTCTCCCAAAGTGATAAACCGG…AGGTTGGTTTCACT; site = the 11-nt donor
I would appreciate it if you labelled entries condition met when recombinant UMI read abundance (log10) is 1 or higher, otherwise condition not met.

Chain | Label class
GTTCGAGCATGGACCGGTTTTCCCGGTAATCCGTATTTGCA (site GTCCGAGCTTG) | condition met
ATAAGGCCATGGACCGGTTTTCCCGGTAATCCGTATTTGGC (site ATAAGGCCTGG) | condition not met
TTATCGTCATGGACCGGTTTTCCCGGTAATCCGTATTTGGC (site TTATCGTCTGC) | condition met
CGACATACATGGACCGGTTTTCCCGGTAATCCGTATTTGCG (site CGACATACTCG) | condition met
CTTAGGCCATGGACCGGTTTTCCCGGTAATCCGTATTTGAA (site CTTAGGCCTTT) | condition not met

* * *

# Measurement protocol: recombinant UMI read abundance after kanamycin selection (control-corrected) (log10(CPM+1)); higher = more efficient recombination; extreme values may be limits of the assay; sequences stand for … in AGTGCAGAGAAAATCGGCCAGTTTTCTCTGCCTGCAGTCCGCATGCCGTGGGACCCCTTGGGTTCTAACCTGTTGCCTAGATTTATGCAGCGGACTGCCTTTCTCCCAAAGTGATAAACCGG…AGGTTGGTTTCACT; site = the 11-nt donor
Some sequences, each annotated with its measured recombinant UMI read abundance (log10).

Chain | recombinant UMI read abundance (log10)
TCCACCCCATGGACCGGTTTTCCCGGTAATCCGTATTTGCG (site TCCACCTCTCG) | 0.00748
CGATAGACATGGACCGGTTTTCCCGGTAATCCGTATTTGAG (site CGCTAGACTCT) | 0.00552
TTACTAACATGGACCGGTTTTCCCGGTAATCCGTATTTGGA (site GTACTAACTTC) | 0.288
AGCGCAGCATGGACCGGTTTTCCCGGTAATCCGTATTTGGG (site AGCGCAGCTCC) | 0.0103
CACGGTCCATGGACCGGTTTTCCCGGTAATCCGTATTTGTT (site CACGGGCCTAA) | 0.00486
AAGGACGCATGGACCGGTTTTCCCGGTAATCCGTATTTGGG (site AAGTACGCTCC) | 0.0226
GTGCTTACATGGACCGGTTTTCCCGGTAATCCGTATTTGGC (site GTGCTTACTGC) | 1.9
CTTCTATCATGGACCGGTTTTCCCGGTAATCCGTATTTGTA (site CTTCTATCTTA) | 1.62
CTTATCTCATGGACCGGTTTTCCCGGTAATCCGTATTTGTA (site CTTATCTCTTA) | 2.27
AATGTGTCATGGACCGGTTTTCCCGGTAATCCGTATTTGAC (site AATGTGTCTGC) | 0
CCCTAGACATGGACCGGTTTTCCCGGTAATCCGTATTTGGG (site GCCTAGACTCC) | 0.0233
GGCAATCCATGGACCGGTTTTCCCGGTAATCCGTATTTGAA (site GCCAATCCTTT) | 0
GCGGTGTCATGGACCGGTTTTCCCGGTAATCCGTATTTGAA (site GCGGTGTCTTT) | 2.41
AAATATGCATGGACCGGTTTTCCCGGTAATCCGTATTTGGA (site AAGTATGCTTC) | 1.23
GGACGTCCATGGACCGGTTTTCCCGGTAATCCGTATTTGCC (site GGACGTCCTGG) | 1.75
TTCCTATCATGGACCGGTTTTCCCGGTAATCCGTATTTGCA (site TTCCTATCTTG) | 1.53
AGGACTACATGGACCGGTTTTCCCGGTAATCCGTATTTGAC (site AGGACTACTGG) | 0
TATTATGCATGGACCGGTTTTCCCGGTAATCCGTATTTGGA (site GATTATGCTTC) | 0.00418
